assay_system: HA of influenza B virus B/Harbin/7/1994 (live virus) (influenza B virus B/Harbin/7/1994)
test_protocol: cell-based or functional assay

binder	VNA titers
CR8059 (antibody, V domains shown) VH: EVQLVQSGAEVKKPGASVRVSCRASGYIFTESGITWVRQAPGQGLEWMGWISGYSGDTKYAQKLQGRVTMTKDTSTTTAYMELRSLRYDDTAVYYCARDVQYSGSYLGAYYFDYWSPGTLVTVSS VL: SYVLTQPPSASGTPGQRVTISCSGSSSNIGTNYVYWYQQFPGTAPKLLIYRSYQRPSGVPDRFSGSKSGSSASLAISGLQSEDEADYYCATWDDSLNGWVFGGGTKLTVL	2.39 µg/mL
